Target: human PKCθ full length enzyme (Homo sapiens)
Construct: human PKCθ full length enzyme (Panvera Cat# P2996); purchased Panvera P2996
Sequence (Q04759 whole entry): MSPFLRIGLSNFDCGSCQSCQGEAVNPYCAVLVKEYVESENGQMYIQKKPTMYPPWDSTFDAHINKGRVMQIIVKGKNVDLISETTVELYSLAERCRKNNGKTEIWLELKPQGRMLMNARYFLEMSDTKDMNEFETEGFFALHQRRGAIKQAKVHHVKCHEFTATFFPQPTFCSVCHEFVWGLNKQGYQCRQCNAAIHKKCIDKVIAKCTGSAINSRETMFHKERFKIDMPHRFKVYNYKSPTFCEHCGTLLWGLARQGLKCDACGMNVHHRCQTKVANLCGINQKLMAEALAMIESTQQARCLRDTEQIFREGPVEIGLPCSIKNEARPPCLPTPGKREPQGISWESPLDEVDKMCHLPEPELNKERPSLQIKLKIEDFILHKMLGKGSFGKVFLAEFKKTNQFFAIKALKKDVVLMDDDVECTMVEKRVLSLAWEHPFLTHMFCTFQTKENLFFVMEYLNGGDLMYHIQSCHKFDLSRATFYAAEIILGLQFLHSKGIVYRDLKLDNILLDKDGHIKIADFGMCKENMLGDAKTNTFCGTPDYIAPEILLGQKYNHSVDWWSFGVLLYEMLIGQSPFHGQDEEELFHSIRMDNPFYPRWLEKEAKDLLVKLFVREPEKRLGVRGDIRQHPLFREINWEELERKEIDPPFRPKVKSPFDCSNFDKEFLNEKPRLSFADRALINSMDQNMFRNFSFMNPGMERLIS
Test: PKCθ IMAP assay (fluorescence polarization)
Assay type: biochemical
Conditions: human PKCθ full length enzyme, IMAP; average value; read-out: IC50 PKCθ IMAP
pIC50: −log10 of the molar value.
Metric name: pIC50

The cases that follow already have their pIC50 on record.
* Cc1c(Nc2c(C#N)cncc2-c2cc3ccccc3o2)cc(Cl)c2[nH]ccc12 [Compound 531] | 7.70
* CCc1c(Nc2c(C#N)cncc2-c2ccc(OC)c(OC)c2)ccc2[nH]ccc12 [Compound 305] | 7.22
* N#Cc1cncc(-c2ccccc2)c1Nc1ccc2[nH]ccc2c1 [Compound 257] | 7.00

a = Cc1c(Nc2c(C#N)cncc2-c2cccc(CN3CCOCC3)c2)ccc2[nH]ccc12 [Compound 456]
b = CN(C)c1ccc(-c2cncc(C#N)c2Nc2ccc3cn[nH]c3c2)cc1 [Compound 293]
c = N#Cc1cncc(-c2cccc(-c3ccc(C(=O)N4CCCC4)cc3)c2)c1Nc1cccc2[nH]ccc12 [Compound 149]
d = COc1ccc(-c2cncc(C#N)c2Nc2ccc3[nH]ccc3c2)cc1-c1ccc(C(=O)NC2CCCC2)cc1 [Compound 192]
e = Cc1c(Nc2c(C#N)cncc2-c2cc3ccccc3n2C)ccc2[nH]ccc12 [Compound 586]
Please put the entries in order of rising pIC50. Respond with an ordered listing of the labels, as requested.
b, d, c, a, e

These entries and their values trace back to patent US7781591B2.
